Cited source for all entries: PubChem BioAssay (NCI)

Test system: OVCAR-3 ovarian
Assay: NCI tumour cell line growth inhibition, 48 h
Examples of compounds with documented TGI follow.
Use µM as the unit, but write only the number.

Reference set, count: 6
compound	experimentalSystem	TGI [µM]
COc1ccc(-c2cc(/C=C/C(=O)c3ccc(OC)c(OC)c3)[nH]n2)cc1	OVCAR-3 ovarian	2.47
COc1ccc(/C(=C\C=C(C#N)C#N)Sc2nc3ccccc3s2)cc1	OVCAR-3 ovarian	17.7
O=[P@@]1(c2ccccc2)O[C@H](COCc2ccccc2)[C@@H](OCc2ccccc2)[C@H](OCc2ccccc2)[C@H]1NCc1ccccc1	OVCAR-3 ovarian	19.3
Cn1c2ccccc2c2ncc3[nH]c4ccccc4c3c21	OVCAR-3 ovarian	31.6
C[Si](C)(C)/C(I)=C/CO	OVCAR-3 ovarian	73.1
CN(C)/N=C1/CCC(C(F)(F)F)(C(F)(F)F)O1	OVCAR-3 ovarian	50.7

Using the record for Cc1cc2c(cc1C(=O)c1ccc(N)cc1)OCO2 , report its TGI.
0.966

Using the record for O=S(=O)(Nc1ccc(Cl)cc1Cl)c1ccc(-c2cnc(C3CC3)o2)cc1 , report its TGI.
15

Using the record for S=c1[nH]c2c(Cl)c(Cl)c(Cl)c(Cl)c2[nH]1 , report its TGI.
97.3

Using the record for COc1ccc(Cn2c(N)c(S(=O)(=O)c3ccc(Cl)cc3)c3nc(C#N)c(C#N)nc32)cc1 , report its TGI.
19.4

Using the record for CC(=O)O[C@H]1CC[C@@]2(C)C(=CC[C@H]3[C@@H]4C/C(=C\c5ccc(N(C)C)cc5)[C@H](OC(C)=O)[C@@]4(C)CC[C@@H]32)C1 , report its TGI.
41.8

Using the record for O=C(Nc1ccc(Cl)c(C(F)(F)F)c1)c1ccc(NC2=C(Cl)C(=O)N(Cc3ccccc3)C2=O)cc1 , report its TGI.
37.9

Using the record for COC(=O)/C=C\C(C#N)(C#N)N=Cc1cc(Br)cs1 , report its TGI.
17.4

Using the record for CCOC(=O)c1c(-c2ccc(OC)cc2)c(C#N)c2c(C#N)c(N)nn2c1N , report its TGI.
14.2

Using the record for C=CCN1CCC23c4c5ccc(O)c4OC2C(=NN=C2CCC4(O)C6Cc7ccc(O)c8c7C4(CCN6CC=C)C2O8)CCC3(O)C1C5 (stereo not given) , report its TGI.
34.5

Using the record for CCOC(=O)c1c2c(n(Cc3ccccc3)c1C)C(=O)C(=O)c1ccccc1-2 , report its TGI.
0.167

Using the record for Cn1c(Nc2ccc(C(F)(F)F)cc2)nc2cc(Oc3ccnc(-c4ncc(C(F)(F)F)[nH]4)c3)ccc21 , report its TGI.
7.54

Using the record for CNCCCn1c2ccccc2c2c3c(c(-c4ccsc4)cc21)C(=O)NC3=O , report its TGI.
2.6

---

System: NCI/ADR-RES ovarian
Assay: NCI tumour cell line growth inhibition, 48 h
Examples of compounds with documented log10 of TGI follow.
Response schema: value (number) is log10 of TGI in units of µM.

Reference set, count: 5
> print(dat)
                                   compound      property  observedresult
1  C=C1C(=O)OC2CC(C)C(C(O)CC(C)O)=CCC12 (centres undefined)  log10 of TGI            1.61
2  NCCCn1c2c(c3ccc([N+](=O)[O-])cc3c1=O)C(=O)c1ccccc1-2  log10 of TGI            0.38
3  CC(C)=CCc1cc2c(cc1O)OC[C@H]1c3cc4c(cc3O[C@@H]21)OCO4  log10 of TGI            1.88
4  C=C1CC/C=C(\C)CCC[C@H](C)[C@@H](O)[C@@H]2OC(=O)C(=C)[C@@H]2C[C@H]1O  log10 of TGI            1.43
5  CC(C)[Si]1(C(C)C)OCC2OC3(CO)C(Oc4nc(=O)ccn43)C2O[Si](C(C)C)(C(C)C)O1 (centres undefined)  log10 of TGI            1.62

Using the record for COC12C(COC(N)=O)C3=C(C(=O)C(C)=C(N)C3=O)N1CC1C2N1C (centres undefined) , report its log10 of TGI.
2.43

Using the record for CSc1ccccc1C#C/C=C\C#Cc1ccccc1N , report its log10 of TGI.
1.20

Using the record for O=C1CCC/C=C\C[C@H]2C=CC(=O)/C2=C/C[C@H](C/C=C\CC(F)(F)F)O1 , report its log10 of TGI.
1.22

Using the record for CS(=O)(=O)Nc1cc(-c2ccc3ncnc(Nc4c(Cl)ccc5c4OCO5)c3c2)cnc1Cl , report its log10 of TGI.
0.62

Using the record for COc1ccc(/C(=C\C=C(C#N)C#N)Sc2nc3ccccc3s2)cc1 , report its log10 of TGI.
1.10

Using the record for COc1ccc(Cn2c(N)c(S(=O)(=O)c3ccc(Cl)cc3)c3nc(C#N)c(C#N)nc32)cc1 , report its log10 of TGI.
0.78

---

System: BT-549 breast
Test: NCI tumour cell line growth inhibition, 48 h
property: TGI

compound	TGI
COC1=C(Br)[C@H](O)[C@@]2(C=C1Br)CC(C(=O)NCCCOc1c(Br)cc(C(O)CNC(C)=O)cc1Br)=NO2 (stereo not given in full)	> 10 µM
CC(=O)OCC1OC(n2c(C)cc(C)c(C#N)c2=S)C(OC(C)=O)C(OC(C)=O)C1OC(C)=O (stereo not given)	> 100 µM
O=C1c2ccccc2C(=O)c2c1nc1ccccc1c2-c1cncc(-c2c3c(nc4ccccc24)C(=O)c2ccccc2C3=O)c1	40 µM
CCOC(=O)[C@H](C)OC(=O)[C@@](C)(NC(=O)c1ccccc1C(=O)OC)[C@@H]1NC=C(C(=O)OC)CS1	> 100 µM
CC(=O)OCC1OC(OC2CC3C(C)(C)C(O)CC[C@]3(C)C3CCC45CC4(CCC5[C@@H](C)CC(O)C(O)C(C)(C)O)[C@]23C)C(O)C(O)C1O (stereo not given in full)	> 10 µM

Using the record for O=C(Cn1c(-c2ccccc2)cc2ccccc21)N1CCCC1 , report its TGI.
> 100 µM

Using the record for C[C@H]1CN[C@@H]2[C@@H](C)[C@H]3[C@@H](C[C@H]4[C@@H]5CC[C@H]6C[C@@H](N)CC[C@]6(C)[C@H]5CC[C@]34C)O[C@@]2(O)C1 , report its TGI.
7.24 µM

---

Test system: U251 CNS
Thanks in advance; please answer with one of these: true = active, false = inactive

// known answers, use as guide
> print(dat)
                                querysmiles  label
1             CN(C)c1ccc(N=Nc2ccccn2)c(O)c1   true
2  O=C1c2cccc3cccc(c23)C(=O)N1CCCCCN1CCN(CCCCCOc2ccc(-c3nc4ccc(N5CCOCC5)cc4[nH]3)cc2)CC1  false

Turning now to a further compound:
Please indicate how the test categorized Cc1nc2cc(Nc3nc(Nc4ccc(F)cc4)nc(-c4cccs4)n3)ccc2n1Cc1ccccc1 .
false

---

Test system: RPMI-8226 leukemia
Experiment: NCI tumour cell line growth inhibition, 48 h
Examples of compounds with documented TGI follow.

Reference set, count: 2
> print(dat)
                                   compound  observedresult
1  COc1cccc(C2CC23C(=O)NC(=O)NC3=O)c1 (stereo not drawn)        > 100 µM
2  CC12CCC3c4ccc(O)cc4CCC3C1C/C(=N\O)C2O (stereo not drawn)        > 100 µM

// below: TGI requested for another compound
Using the record for CSc1ccsc1-c1sc(-c2cc(SC)c(-c3sc(-c4cc(SC)c(-c5sccc5SC)s4)cc3SC)s2)cc1SC , report its TGI.
> 100 µM

---

Tested on: IGROV1 ovarian
Assay: NCI tumour cell line growth inhibition, 48 h
property: TGI

Reference set, count: 4
> print(dat)
                                querysmiles  observedresult
1  CCOC(=O)c1nc2cc(F)c(N3CCOCC3)cc2[nH]c1=O        > 100 µM
2  CN(C)c1ncnc2c1ncn2CCn1cnc2c(N(C)C)ncnc21        > 100 µM
3          Cc1cc2c(cc1C(=O)c1ccc(N)cc1)OCO2        > 100 µM
4  O=C(N(O)c1ccccc1Cl)C(O)(c1ccccc1)c1ccccc1        > 100 µM

// below: TGI requested for another molecule
Using the record for C[C@H]1CN[C@@H]2[C@@H](C)[C@H]3[C@@H](C[C@H]4[C@@H]5CC[C@H]6C[C@@H](N)CC[C@]6(C)[C@H]5CC[C@]34C)O[C@@]2(O)C1 , report its TGI.
9.66 µM

---

System: MALME-3M melanoma
Assay: NCI tumour cell line growth inhibition, 48 h
Where a SMILES comes first, the peptide text is derived from it. The star is where a group is joined. Cbz = O=C(OCc1ccccc1)*
Examples of molecules with documented TGI follow.

Reference set, count: 3
> print(dat)
                                   molecule  observedresult
1  CC(NC(=O)C(NC(=O)OCc1ccccc1)C(C)C)C(=O)NCC(=O)O (stereo not drawn) (Cbz-Val-Ala-Gly-OH; configuration not given here)        > 100 µM
2  O=C1c2cccc3cccc(c23)C(=O)N1CCCCCN1CCN(CCCCCOc2ccc(-c3nc4ccc(N5CCOCC5)cc4[nH]3)cc2)CC1           40 µM
3  COc1cccc(C2CC23C(=O)NC(=O)NC3=O)c1 (centres undefined)        > 100 µM

Using the record for CC1CN=C(N(C(=O)Nc2ccc(Cl)c(Cl)c2)c2ccccc2)S1 (centres undefined) , report its TGI.
> 100 µM

Using the record for C[Si](C)(C)/C(Br)=C\CCN1C(=O)CCC1=O , report its TGI.
> 100 µM

Using the record for COc1cccc2nc3c(C(=O)NCCN(C)C)cccc3cc12 , report its TGI.
4.4 µM

Using the record for CC(C)OC(=O)[C@H](C)NP(=O)(OC[C@H]1O[C@@H](n2ccc(=O)[nH]c2=O)[C@](C)(F)[C@@H]1O)Oc1ccccc1 (some centres undefined) , report its TGI.
> 100 µM

Using the record for COC(=O)C1=C(O)c2ccc(Cl)cc2S(=O)(=O)N1C , report its TGI.
> 100 µM

Using the record for CN(C)C(=S)Sc1ccc([N+](=O)[O-])cc1[N+](=O)[O-] , report its TGI.
3.17 µM
